Molecular target: human Edg-1 (S1P1) (Homo sapiens, UniProt P21453)
Construct: expressed in transfected cells; host or cells: HEK-293
Sequence (P21453 whole entry): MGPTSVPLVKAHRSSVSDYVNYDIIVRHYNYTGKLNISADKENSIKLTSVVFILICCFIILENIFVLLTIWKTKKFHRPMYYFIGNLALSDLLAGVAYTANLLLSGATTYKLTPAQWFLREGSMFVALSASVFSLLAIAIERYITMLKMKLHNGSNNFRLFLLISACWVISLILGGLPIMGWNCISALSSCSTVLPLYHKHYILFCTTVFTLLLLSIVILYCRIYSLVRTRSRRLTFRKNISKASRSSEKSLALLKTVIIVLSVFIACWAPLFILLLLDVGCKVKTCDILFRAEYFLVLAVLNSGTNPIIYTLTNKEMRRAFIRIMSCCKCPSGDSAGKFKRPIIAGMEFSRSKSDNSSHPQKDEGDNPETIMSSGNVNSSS
Test: S1P1 binding inhibition test (membrane, [33P]-S1P)
Settings: compound 10 μM; [33P]-S1P 0.1 nM; human Edg-1 (S1P1) HEK-293 membrane fraction; read-out: Binding test (membrane) % inhibition (10 μM)
property: inhibition at 10 µM (%)

CCn1c(CNS(=O)(=O)c2ccc(Cl)c(Cl)c2)cnc1Oc1ccc(F)cc1    90.6
CCn1c(C(C)NS(=O)(=O)c2ccc(F)cc2)cnc1Oc1ccc(C)cc1 (stereo not drawn)    92.1
CCn1c(C(C)NS(=O)(=O)c2cc(Cl)c(Cl)cc2Cl)cnc1Oc1ccc(C)cc1 (stereo not drawn)    115
CCn1c(C(C)NS(=O)(=O)c2ccc(Cl)c(Cl)c2)cnc1Oc1ccc(F)cc1 (stereo not drawn)    99.8
CCn1c(C(C)NS(=O)(=O)c2ccc(Cl)c(Cl)c2)cnc1S(=O)(=O)c1ccc(C)cc1 (stereo not drawn)    52.5
CCc1ccc(OC)c(S(=O)(=O)NC(C)c2cnc(Oc3ccc(C)cc3)n2CC)c1 (stereo not drawn)    80.7

A = CCn1c(C(NS(=O)(=O)c2ccc3c(Cl)cccc3c2)c2ccccc2)cnc1Oc1ccc(F)cc1 (stereo not drawn)
B = CC[C@@H](NS(=O)(=O)c1ccc(Cl)c(Cl)c1)c1cnc(Oc2ccc(F)cc2)n1CC
Of A and B , whose reported inhibition at 10 µM is numerically smaller? Reply briefly: the label of your chosen item.
A
(A: 69.3%, B: 100%)

A = CCn1c(C(C)NS(=O)(=O)c2cc(Br)ccc2Br)cnc1Oc1ccc(C)cc1 (stereo not drawn)
B = CCn1c(C(C)NS(=O)(=O)c2ccc(C(C)(C)C)cc2)cnc1Oc1ccc(C)cc1 (stereo not drawn)
Given the listed records, identify the one among A and B with higher inhibition at 10 µM. Reply briefly: the label of your chosen item.
A
(A: 86.4%, B: 54.7%)

Value source: patent US7994204B2
